Source listed as PubChem BioAssay.

# experiment description: inhibitors of mutant huntingtin aggregation, primary screen, imaging, exon1htt(103Q)mCFP cells, high-content imaging (AID 483);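 also: compound exposure lasted 3 days before fixation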
# assay context: exon1htt(103Q)mCFP cell line, aggregate imaging, at 2 µM; active compounds read high
Activity calls are given as the source filed them.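 The calls were made as follows: active = visual image review flags a hit and inhibition of aggregation exceeds 20%; inconclusive = visual hit but inhibition at or below 20%; inactive = no hit on visual image review.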
value type: inhibition of aggregation

> print(dat)
                                   compound                 value.type            result
1               Nc1nc(-n2cnnc2)nn1-c1ccccc1  inhibition of aggregation  -0.2% (inactive)
2  CCC1(C(=O)OC)NC(c2cccc(F)c2)C2C(=O)N(C)C(=O)C21 (stereo unspecified)  inhibition of aggregation  11.4% (inactive)
3  COc1ccc(N2CCN(CCNC(=O)CCS(=O)(=O)c3cccc4nsnc34)CC2)cc1  inhibition of aggregation   -23% (inactive)

QUERY: Annotate the compound "COc1cccc(CNC(=O)Cn2c(=O)oc3ccccc32)c1OC" with its measured inhibition of aggregation.
RESULT: 2.6% (inactive)

QUERY: Annotate the compound "O=C1c2ccccc2S(=O)(=O)N1Cc1nnc(-c2ccccc2Br)o1" with its measured inhibition of aggregation.
RESULT: -9.2% (inactive)

QUERY: Annotate the compound "CCCCS(=O)(=O)NC1=NCN(C2CCN(Cc3ccccc3)CC2)CN1" with its measured inhibition of aggregation.
RESULT: 17.7% (inactive)

QUERY: Annotate the compound "CCOc1cc2[nH]c(=O)n(CCCCC(=O)NCc3ccco3)c(=O)c2cc1OCC" with its measured inhibition of aggregation.
RESULT: -0.5% (inactive)
